B1: Pistol ribozyme (parent)
chain: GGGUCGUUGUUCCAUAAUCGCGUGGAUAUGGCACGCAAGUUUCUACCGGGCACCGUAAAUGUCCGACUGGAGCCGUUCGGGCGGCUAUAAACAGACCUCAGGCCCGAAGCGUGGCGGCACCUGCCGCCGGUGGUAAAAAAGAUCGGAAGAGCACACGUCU

variants of: B1; assay: aptazyme ON/OFF ratio, guanine; higher = stronger switching; co-transcriptional cleavage with and without guanine
Form field: aptazyme ON/OFF ratio (one value per entry).

VARIANT IDENTIFIER	aptazyme ON/OFF ratio
U7A U10C U11C C12A C13A	1.06
U7G U8G U10A U11C C12A C13G	1.23
U8C G9A U10A U11C C13G	1.04
G9U U11C C12A	2
U7G U8G G9A U10C C13A	1.12
U7G U8A G9C U11G C12A C13A	1.05
U7A U8A G9C U10G U11G C12A C13A	1.4
U7G U8G U10C U11C C12G	1.18
U7C G9U U10G U11A C12A	1.2
U7C U8A U11G C13U	1.19
U7C U8G G9U U11A C12G C13A	1.05
U7G U8A U11G C12G C13G	1.32
U7A U8A U10C C13G	1.09
U8A G9U U10G U11G C13A	1.08
U7G G9A U10G C12A C13A	1.08
U7A U8C G9A U10G U11A C12U C13U	1.11
U7G U10C C12G C13G	1.04
U7C U10C U11G	1.21
U7C G9U U10C C12G	1.09
U8A G9U U10G U11G C12U	1.28
G9C U11C C12A C13A	1.12
U7A U8G G9C U10G U11A C12A C13U	1.47
U7C U8A U10C C12U C13U	1.54
U7G U8G G9A U10C C12A	1.46
U7A U8G G9U U11A C12U C13A	1.43
G9A U11C C12G C13U	1.33
U7G U8C C13U	1.46
U8C C12A	1.52
U7G G9A U11A C12A C13A	1.18
U7C U8C G9C U10G C12A C13G	1.06
U7G U8A U10C U11A C13G	1.23
G9A U10A U11C C13U	1.01
U7G U8C U11G C12A C13A	1.13
